Quick reference for Euclidean distance among some compounds
- Test system: A549
- measurement description: Euclidean distance of Cell Painting phenotypic profile (signed KS, 77 features) to DMSO centroid (dimensionless distance); 5 or 10 uM (library dependent); higher = stronger phenotypic change vs DMSO (phenoactivity)
- experimental context: 48 h
Counter-ions that a name gives are not always drawn.
Please state the value as a number alone, without comment.

compound	recorded metric	measurement
CC(=O)NO [Acetohydroxamic acid]	Euclidean distance	1.28
CCCNC(=O)Nc1ccc(Oc2ncnc3cc(OC)c(OC)cc23)cc1Cl	Euclidean distance	0.789

Lookup: Fill in the blank: the reported Euclidean distance of NS(=O)(=O)c1cc2c(cc1Cl)NC(C1CC3C=CC1C3)NS2(=O)=O (centres undefined) [Cyclothiazide] is ____.
Found: 0.917

Lookup: Fill in the blank: the reported Euclidean distance of CC(C)(CO)[C@@H](O)C(=O)NCCC(=O)NCCSSCCNC(=O)CCNC(=O)[C@H](O)C(C)(C)CO [D-Pantethine] is ____.
Found: 1.2

Lookup: Fill in the blank: the reported Euclidean distance of "COc1cc(OC)c(NC(=O)Nc2cc(C)on2)cc1Cl" is ____.
Found: 0.813

Lookup: Fill in the blank: the reported Euclidean distance of CC(C)n1cnc2c(NCCc3ccc(O)cc3)nc(-c3csc4ccccc34)nc21 [StemRegenin 1 (SR1)] is ____.
Found: 1.13

Lookup: Fill in the blank: the reported Euclidean distance of "C=CC(=O)N1CC[C@H](n2nc(C#Cc3cc(OC)cc(OC)c3)c3c(N)ncnc32)C1" is ____.
Found: 1.47

Lookup: Fill in the blank: the reported Euclidean distance of CC(C)(C(=O)O)c1ccc(C(O)CCCN2CCC(C(O)(c3ccccc3)c3ccccc3)CC2)cc1 (centres undefined) [Fexofenadine HCl] is ____.
Found: 0.838

Lookup: Fill in the blank: the reported Euclidean distance of CCOc1ccc2nc3cc(N)ccc3c(N)c2c1 [Ethacridine lactate monohydrate] is ____.
Found: 2.06
